pIC50: −log10 of the molar value.
This document collects pIC50 values reported for Pim-2 (Homo sapiens (Human), UniProt Q9P1W9).

Input line: Find the recorded pIC50 belonging to C[C@@H]1C[C@H](N)CN(c2ccncc2NCc2ccc(F)c(-c3c(F)cc(CN4CC[C@@H](F)C4)cc3F)n2)C1 and report it.
Output line: ≥ 7.00

Input line: Another: C[C@H]1CN(c2ccncc2NCc2ccc(F)c(-c3c(F)cc(N4CCOCC4)cc3F)n2)C[C@@H](N)[C@@H]1O
Output line: ≥ 7.00

Input line: Another: COc1cc(F)c(-c2nc(CNc3cnccc3N3C[C@H](C)C[C@H](N)C3)ccc2F)c(F)c1
Output line: ≥ 7.00

Input line: Another: C[C@@H]1C[C@H](N)CN(c2ccncc2NCc2ccc(F)c(-c3c(F)cccc3F)c2)C1
Output line: 6.00 to 7.00

Input line: Another: C[C@@H]1C[C@H](N)C[C@H](c2ccncc2NCc2ccc(F)c(-c3c(F)cc(C4(O)CCC4)cc3F)n2)C1
Output line: 6.00 to 7.00

Input line: Another: C[C@@H]1C[C@H](N)CN(c2ccncc2NCc2ccc(F)c(-c3c(F)cc(C4(O)CCOCC4)cc3F)n2)C1
Output line: ≥ 7.00

Input line: Another: C[C@@H]1C[C@H](N)CN(c2c(NCc3ccc(F)c(-c4c(F)cccc4F)n3)cnc3c2CC[C@H]3O)C1 (single isomer, unassigned) [Example 87 (Diastereoisomer 2)]
Output line: 6.00 to 7.00

Input line: Another: N[C@H]1C[C@@H](C(F)(F)F)CN(c2ccncc2NCc2ccc(F)c(-c3c(F)cc(C4(O)CCC4)cc3F)n2)C1
Output line: ≥ 7.00

Input line: Another: C[C@@H]1C[C@H](N)CN(c2ccncc2NCc2ccc(F)c(-c3ccc(C#N)cc3F)n2)C1
Output line: 6.00 to 7.00

Input line: Another: C[C@H]1CN(c2ccncc2NCc2ccc(F)c(-c3c(F)cc(CN4CC[C@H](O)C4)cc3F)n2)C[C@@H](N)[C@@H]1O
Output line: ≥ 7.00

Input line: Another: C[C@@H]1C[C@H](N)C[C@H](c2ccncc2NCc2ccc(F)c(-c3c(F)cccc3F)n2)C1
Output line: 6.00 to 7.00

Input line: Another: C[C@@H]1C[C@H](N)CN(c2ccncc2NCc2cccc(-c3c(F)cccc3F)n2)C1
Output line: 6.00 to 7.00

Input line: Another: C[C@H]1CN(c2ccncc2NCc2ccc(F)c(-c3c(F)cc(CN4CC[C@@H](C#N)C4)cc3F)n2)C[C@@H](N)[C@@H]1O
Output line: ≥ 7.00

Input line: Another: C[C@@H]1C[C@H](N)CN(c2ccncc2NCc2ccnc(-c3c(F)cccc3F)n2)C1
Output line: 5.00 to 6.00

* * *

Provide the recorded IC50 for the entries that follow.
TARGET_OF_ASSAY: Pim-2 (Homo sapiens (Human), UniProt Q9P1W9)
Sequence (Q9P1W9 whole entry): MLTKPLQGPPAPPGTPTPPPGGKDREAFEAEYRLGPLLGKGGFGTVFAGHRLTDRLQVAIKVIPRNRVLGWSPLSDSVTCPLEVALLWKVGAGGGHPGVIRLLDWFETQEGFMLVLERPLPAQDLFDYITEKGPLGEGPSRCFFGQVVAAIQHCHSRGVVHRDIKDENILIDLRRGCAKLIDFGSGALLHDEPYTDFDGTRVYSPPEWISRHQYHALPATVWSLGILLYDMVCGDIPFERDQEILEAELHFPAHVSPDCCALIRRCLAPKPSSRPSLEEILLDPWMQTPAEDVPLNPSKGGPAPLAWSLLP

Input line: Find the recorded IC50 belonging to C[C@@H]1C[C@H](N)CN(c2ccncc2NCc2ccc(F)c(-c3c(F)cc(OC4CCOCC4)cc3F)n2)C1 and report it.
Output line: ≤ 100 nM

Input line: Another: C[C@@H]1C[C@H](N)CN(c2ccncc2NCc2ccc(F)c(-c3c(F)cccc3C#N)n2)C1
Output line: 100 to 1000 nM

Input line: Another: C[C@@H]1C[C@H](N)CN(c2ccncc2NCc2ccc(F)c(-c3c(F)cc(CC(C)(C)O)cc3F)n2)C1
Output line: ≤ 100 nM

Input line: Another: C[C@@H]1C[C@H](N)CN(c2ccnc(F)c2NCc2ccc(F)c(-c3c(F)cccc3F)n2)C1
Output line: ≤ 100 nM

Input line: Another: C[C@@H]1C[C@H](N)CN(c2ccncc2NCc2ccc(F)c(-c3c(F)cccc3F)n2)C1
Output line: ≤ 100 nM

Input line: Another: C[C@@H]1C[C@H](N)CN(c2ccncc2NCc2ccc(F)c(-c3c(F)cc(O[C@H]4CCOC4)cc3F)n2)C1
Output line: ≤ 100 nM

Input line: Another: C[C@@H]1C[C@H](N)CN(c2ccncc2NCc2ccc(F)c(-c3ccc4sccc4c3)n2)C1
Output line: 100 to 1000 nM

* * *

TARGET_OF_ASSAY: UniProt:Q9P1W9
pIC50: −log10 of the molar value.
ENDPOINT: pIC50

Input line: Find the recorded pIC50 belonging to C[C@H]1CN(c2ccncc2NCc2ccc(F)c(-c3c(F)cc(CC(C)(C)O)cc3F)n2)C[C@@H](N)[C@@H]1O and report it.
Output line: ≥ 7.00

Input line: Another: C[C@@H]1C[C@H](N)CN(c2ccncc2NCc2ccc(F)c(-c3c(F)cc(N4CCOCC4)cc3F)n2)C1
Output line: ≥ 7.00

Input line: Another: C[C@H]1CN(c2ccncc2NCc2ccc3occ(-c4c(F)cc(CO)cc4F)c3n2)C[C@@H](N)[C@@H]1O
Output line: 6.00 to 7.00

Input line: Another: C[C@@H]1C[C@H](N)CN(c2ccncc2NCc2ccc(F)c(-c3c(F)cc(C4(O)CCC4)cc3F)c2)C1
Output line: 6.00 to 7.00

Input line: Another: C[C@H]1CN(c2c(NCc3ccc(F)c(-c4c(F)cccc4F)n3)cnc3c2CCO3)C[C@@H](N)[C@@H]1O
Output line: 5.00 to 6.00

Input line: Another: C[C@H]1CN(c2ccncc2NCc2ccc(F)c(-c3c(F)cc(C4(O)CCC4)cc3F)n2)C[C@@H](N)[C@@H]1O
Output line: ≥ 7.00

Input line: Another: C[C@H]1CN(c2ccncc2NCc2ccc(F)c(-c3c(F)cc(CN4CC[C@@H](F)C4)cc3F)n2)C[C@@H](N)[C@@H]1O
Output line: ≥ 7.00

Input line: Another: C[C@@H]1C[C@H](N)CN(c2ccncc2NCc2ccc(F)c(-c3c(F)cc(N4CC[C@@H](F)C4)cc3F)n2)C1
Output line: 6.00 to 7.00

Input line: Another: C[C@@H]1C[C@H](N)CN(c2ccncc2NCc2ccc3ccc(-c4ccn5ccnc5c4)cc3n2)C1
Output line: 6.00 to 7.00

Input line: Another: C[C@H]1CN(c2ccncc2NCc2ccc(F)c(-c3c(F)cccc3F)c2)C[C@@H](N)[C@@H]1O [Example 24B]
Output line: 6.00 to 7.00

Input line: Another: C[C@H]1CN(c2ccncc2NCc2ccc(F)c(-c3c(F)cc(C4(O)CC4)cc3F)n2)C[C@@H](N)[C@@H]1O
Output line: 6.00 to 7.00

* * *

Provide the recorded IC50 for the entries that follow.
TARGET_OF_ASSAY: UniProt:Q9P1W9

Input line: Find the recorded IC50 belonging to C[C@@H]1C[C@H](N)CN(c2ccncc2NCc2ccc(F)c(-c3c(F)cc(CN4CCC4)cc3F)n2)C1 [Example 50] and report it.
Output line: 100 to 1000 nM

Input line: Another: C[C@@H]1C[C@H](N)CN(c2ccncc2NCc2ccc(F)c(-c3c(F)cc(C4(O)CCC4)cc3F)n2)C1 [Example 5]
Output line: ≤ 100 nM

Input line: Another: C[C@H]1CN(c2ccncc2NCc2ccc(F)c(-c3c(F)cc(C4(F)CCOCC4)cc3F)n2)C[C@@H](N)[C@@H]1O [Example 61]
Output line: ≤ 100 nM

Input line: Another: C[C@@H]1C[C@H](N)CN(c2c(NCc3ccc(F)c(-c4c(F)cccc4F)n3)cnc3c2CCC3)C1 [Example 89]
Output line: 100 to 1000 nM

Input line: Another: COC1(c2cc(F)c(-c3nc(CNc4cnccc4N4C[C@H](C)C[C@H](N)C4)ccc3F)c(F)c2)CCOCC1 [Example 60]
Output line: 100 to 1000 nM

Input line: Another: C[C@H]1CN(c2ccncc2NCc2ccc3ccc(-c4ccn(C)c(=O)c4F)cc3n2)C[C@@H](N)[C@@H]1O [Example 107]
Output line: ≤ 100 nM

Input line: Another: C[C@H]1CN(c2ccncc2NCc2ccnc(-c3c(F)cccc3F)n2)C[C@@H](N)[C@@H]1O [Example 30]
Output line: 1000 to 10000 nM

Input line: Another: C[C@@H]1C[C@H](N)CN(c2ccncc2NCc2ccc(F)c(-c3c(F)cc(C4(O)CC4)cc3F)n2)C1 [Example 10]
Output line: ≤ 100 nM

Input line: Another: C[C@H]1CN(c2ccncc2NCc2ccc(F)c(-c3c(F)cc(C4(O)CCOCC4)cc3F)n2)C[C@@H](N)[C@@H]1O [Example 3]
Output line: ≤ 100 nM

Input line: Another: C[C@H]1CN(c2ccncc2NCc2ccc(F)c(-c3c(F)cc4ncccc4c3F)n2)C[C@@H](N)[C@@H]1O [Example 37]
Output line: 100 to 1000 nM

Input line: Another: N[C@H]1C[C@@H](C(F)(F)F)CN(c2ccncc2NCc2ccc(F)c(-c3c(F)cc(C4CCOCC4)cc3F)n2)C1 [Example 65]
Output line: ≤ 100 nM

Input line: Another: C[C@@H]1C[C@H](N)CN(c2ccncc2NCc2ccc3occ(-c4ccc(CO)cc4F)c3n2)C1 [Example 100]
Output line: ≤ 100 nM

Input line: Another: C[C@H]1CN(c2ccncc2NCc2ccc(F)c(-c3c(F)cc(C4CCOCC4)cc3F)n2)C[C@@H](N)[C@@H]1O [Example 63]
Output line: ≤ 100 nM

Input line: Another: C[C@H]1CN(c2ccncc2NCc2ccc(F)c(C3=CCCCC3)n2)C[C@@H](N)[C@@H]1O [Example 57]
Output line: 100 to 1000 nM

Input line: Another: C[C@@H]1C[C@H](N)CN(c2ccncc2NCc2ccc(F)c(-c3c(F)cc(OCC(C)(C)O)cc3F)n2)C1 [Example 103]
Output line: ≤ 100 nM

Input line: Another: C[C@@H]1C[C@H](N)CN(c2ccncc2NCc2ccc(F)c(-c3c(F)cc(CN4CC[C@@H](C#N)C4)cc3F)n2)C1 [Example 53]
Output line: ≤ 100 nM

Input line: Another: C[C@H]1CN(c2ccncc2NCc2ccc(F)c(-c3c(F)cncc3F)n2)C[C@@H](N)[C@@H]1O [Example 16]
Output line: 100 to 1000 nM

Input line: Another: C[C@@H]1C[C@H](N)CN(c2ccncc2NCc2ccc(F)c(-c3c(F)cc(C4(O)CCOCC4)cc3F)c2)C1 [Example 27]
Output line: 100 to 1000 nM

Input line: Another: CNCc1cc(F)c(-c2nc(CNc3cnccc3N3C[C@@H](N)[C@H](O)[C@@H](C)C3)ccc2F)c(F)c1 [Example 40]
Output line: 100 to 1000 nM

Input line: Another: C[C@@H]1C[C@H](N)CN(c2ccncc2NCc2ccc(F)c(-c3ccc4c(c3)NC(=O)C4)n2)C1 [Example 86]
Output line: 100 to 1000 nM

Input line: Another: C[C@@H]1C[C@H](N)CN(c2ccncc2NCc2ccc(F)c(-c3c(F)ccc(C4(O)CC4)c3F)n2)C1 [Example 11]
Output line: 100 to 1000 nM

Input line: Another: C[C@H]1CN(c2ccncc2NCc2ccc(F)c(-c3c(F)cc(C4(O)CCOC4)cc3F)n2)C[C@@H](N)[C@@H]1O (stereo partly shown) [Example 1]
Output line: ≤ 100 nM

Input line: Another: C[C@@H]1C[C@H](N)CN(c2ccncc2NCc2ccc(F)c(-c3c(F)cc(C(C)(C)O)cc3F)n2)C1 [Example 105]
Output line: ≤ 100 nM

Input line: Another: C[C@H]1CN(c2ccncc2NCc2ccc(F)c(-c3c(F)cc(O[C@H]4CCOC4)cc3F)n2)C[C@@H](N)[C@@H]1O [Example 75]
Output line: ≤ 100 nM

Input line: Another: C[C@H]1CN(c2ccncc2NCc2ccc(F)c(-c3c(F)cc(CN4CC[C@H](C#N)C4)cc3F)n2)C[C@@H](N)[C@@H]1O [Example 45]
Output line: ≤ 100 nM

Input line: Another: C[C@@H]1C[C@H](N)CN(c2ccncc2NCc2ccc(F)c(-c3c(F)cc(CN4CC[C@H](C#N)C4)cc3F)n2)C1 [Example 54]
Output line: ≤ 100 nM

Input line: Another: C[C@@H]1C[C@H](N)CN(c2ccncc2NCc2ccc(F)c(-c3c(F)cc(CN4CCOCC4)cc3F)n2)C1 [Example 48]
Output line: ≤ 100 nM

Input line: Another: C[C@@H]1C[C@H](N)CN(c2ccncc2NCc2nc(-c3c(F)cccc3F)sc2N)C1 [Example 69]
Output line: 1000 to 10000 nM

Reference source: patent US9802918B2
